- PROCEDURE_SUMMARY: growth inhibition of non-replicating M. tuberculosis (AID 488890);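 also: plate controls were DMSO cells for no effect and high antibiotic wells for full effect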
- COND: Mycobacterium tuberculosis non-replicating, at 25 µM, stronger effect = higher value
Hit rate of the full screen: of about 320,000 compounds, about 1,300 (0.41%) were called active. Another 3% or so got no clear call; they are omitted. A selection follows. Results with a measured potency or affinity are listed apart.
Exercise: for every item that follows, state its recorded inhibition.
The reply should contain only the number, in %.

Q: Give inhibition for the following compound: CC1=NN(C(=O)Cn2nc([N+](=O)[O-])cc2C)C(O)(C(F)(F)F)C1 (stereo not given)
Result: 32.3

Q: Give inhibition for the following compound: Cc1cc(OCC(=O)Nc2ccncc2)c(C)cc1Br
Result: 68

Q: Give inhibition for the following compound: O=C(Cc1ccc(Cl)cc1)Nc1cccnc1
Result: 30.9

Q: Give inhibition for the following compound: Cc1nc2c(sc3nc4c(cc32)COC(C)(C)C4)c(=O)n1Cc1ccccc1
Result: 8.21

Q: Give inhibition for the following compound: CCC/C(=C1/c2ccccc2C(=O)N1c1ccccc1)c1cnc(OC)nc1
Result: 24.1

Q: Give inhibition for the following compound: O=C(CSc1nc2ccccc2nc1N1CCOCC1)Nc1ccccc1F
Result: 6.49

Q: Give inhibition for the following compound: Cc1ncc([N+](=O)[O-])n1CC(=O)Nc1ccc(F)cc1F
Result: -8.21

Q: Give inhibition for the following compound: O=C(O)c1ccc(N2CC3CC(C2)c2cccc(=O)n2C3)c(NC(=S)Nc2ccc(Br)cc2)c1 (stereo not given)
Result: 41.1

Q: Give inhibition for the following compound: CS(=O)(=O)N1CCC(C(=O)Nc2cc(Cl)ccc2Cl)CC1
Result: -6.65

Q: Give inhibition for the following compound: COc1ccccc1CCNC(=O)c1ccoc1C
Result: 3.23

Q: Give inhibition for the following compound: Cc1nnsc1C(=O)Nc1ccc(Cl)cc1
Result: -9.77

Q: Give inhibition for the following compound: Cc1cc(C(=O)OCC(=O)N2CCC(c3ccccc3)=N2)ccc1[N+](=O)[O-]
Result: 22.1

Q: Give inhibition for the following compound: Cc1ccc(OCC(=O)Nc2ccncc2)cc1
Result: 76.7

Q: Give inhibition for the following compound: Cc1sc(NC(=O)c2cccc(N3C(=O)CCC3=O)c2)nc1-c1ccccc1
Result: -5.52

Q: Give inhibition for the following compound: Cc1ccc(CC(=O)N2CCN(C)CC2)cc1
Result: -6.84

Q: Give inhibition for the following compound: c1ccc(Nc2ccccn2)nc1
Result: 3.72

Q: Give inhibition for the following compound: Cc1nnsc1S(=O)c1ccc(Cl)cc1 (stereo not given)
Result: -4.16

Q: Give inhibition for the following compound: CN1C(=O)N(C)C(c2ccccc2Cl)C2=C1CC(C)(C)CC2=O (stereo not given)
Result: 1.21

Q: Give inhibition for the following compound: N/C(=N\N=C\c1cccs1)SC1CC(=O)N(c2cccc([N+](=O)[O-])c2)C1=O (stereo not given)
Result: -1.1

Q: Give inhibition for the following compound: COc1ccccc1C(CCNCc1ccccc1)c1ccc(OC(C)C)cc1 (stereo not given)
Result: 68.5

Q: Give inhibition for the following compound: Cc1ccc2oc(=O)c(/C=C(\O)c3sc(C)nc3C)nc2c1
Result: 2.53

Q: Give inhibition for the following compound: CC1=NN(C(=O)c2ccc(Cn3ccc([N+](=O)[O-])n3)cc2)C(O)(C(F)(F)F)C1 (stereo not given)
Result: 75.5

Q: Give inhibition for the following compound: O=C(c1ccc2oc(Cc3ccc(Cl)cc3)nc2c1)N1CC[C@H](O)C1
Result: -2.21

Q: Give inhibition for the following compound: O=C(Cc1ccccc1F)N1CCN(CC(=O)N2CCCC2)CC1
Result: 8.24

Q: Give inhibition for the following compound: COc1ccccc1OCCNC(=O)c1ccc(C)o1
Result: -13.1

Q: Give inhibition for the following compound: COc1ccc(C(=O)C2CCCN(C(=O)c3c4c(nn3C)CCCC4)C2)cc1F (stereo not given)
Result: -19.7

Q: Give inhibition for the following compound: COc1ccccc1C(=O)N1CCN(C2CCN(Cc3ccccc3)CC2)CC1
Result: -21.9

Q: Give inhibition for the following compound: COc1cccc(N2CCN(C(=S)Nc3ccc(F)cc3)CC2)c1
Result: -4.62

Q: Give inhibition for the following compound: COc1ccc(CC(=O)N2N=C(C)CC2(O)C(F)(F)F)cc1OC (stereo not given)
Result: 45.4

Q: Give inhibition for the following compound: c1ccc(Nc2ccccc2Nc2ccccn2)nc1
Result: 0.46

Q: Give inhibition for the following compound: CC(=O)Nc1ccc(Nc2nc(C)c([N+](=O)[O-])c(N(C)c3ccccc3)n2)cc1
Result: 71.5

Q: Give inhibition for the following compound: CCCCCC(=O)Nc1ccc2ccccc2c1
Result: 58.5

Q: Give inhibition for the following compound: Cc1cc(OCC(=O)Nc2ccncc2)cc(C)c1Br
Result: 62.5

Q: Give inhibition for the following compound: O=C(Nc1nnc(SCc2ccccc2F)s1)C1=COCCO1
Result: 45.5

Q: Give inhibition for the following compound: CCCn1c(=O)c(C(=O)Nc2ncccc2O)c(O)c2ccccc21
Result: 66.8

Recorded values, source PubChem BioAssay AID488890.
